Target: HDAC3 (Homo sapiens, UniProt O15379)
Construct: purchased Reaction Biology Corporation (assay run by the CRO)
Sequence (O15379 whole entry): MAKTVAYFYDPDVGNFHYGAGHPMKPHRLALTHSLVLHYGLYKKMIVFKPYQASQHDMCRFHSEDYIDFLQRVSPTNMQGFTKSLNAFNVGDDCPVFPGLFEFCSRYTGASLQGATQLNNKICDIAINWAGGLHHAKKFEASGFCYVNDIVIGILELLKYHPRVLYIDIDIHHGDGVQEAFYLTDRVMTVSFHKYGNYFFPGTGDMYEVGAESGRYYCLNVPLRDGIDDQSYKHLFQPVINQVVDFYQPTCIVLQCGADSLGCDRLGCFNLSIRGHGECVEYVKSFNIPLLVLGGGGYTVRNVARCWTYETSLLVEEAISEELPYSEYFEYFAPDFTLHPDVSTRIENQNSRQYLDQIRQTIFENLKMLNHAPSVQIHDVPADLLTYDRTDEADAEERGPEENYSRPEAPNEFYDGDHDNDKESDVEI
Sequence (Q9Y618 395-489 partner limits assumed): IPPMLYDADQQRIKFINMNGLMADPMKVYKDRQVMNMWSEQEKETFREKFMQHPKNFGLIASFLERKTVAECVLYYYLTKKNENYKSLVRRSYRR
Assay: HDAC3 inhibition, full IC50 measurement (Reaction Biology; fluorogenic p53 peptide RHKK(Ac)AMC)
Format: biochemical
Settings: Conc. 5.08E-10 M, t2
Peptide text beside a SMILES is read from it.
metric: HDAC3 activity raw data (signal)
Form field (numeric): enter value without unit.

Completed entries (count: 2):
CC(C)C[C@H]1NC(=O)[C@H](Cc2c[nH]c3ccccc23)NC(=O)[C@H](CCCCCS)NC(=O)[C@@H](Cc2ccc(O)cc2)NC(=O)[C@@H](C(C)C)NC(=O)[C@H](Cc2c[nH]cn2)NC(=O)CNC(=O)CNC(=O)[C@@H](CO)NC1=O [des2.2.0, SHA-Trp-dLeu-dSer-Gly-Gly-His-dVal-dTyr] (HELM PEPTIDE1{G.G.H.[dV].[dY].[O=C([C@H](CCCCCS)N[*:1])[*:2]].W.[dL].[dS]}$PEPTIDE1,PEPTIDE1,1:R1-9:R2$$$V2.0) :: 1022182
CC(C)[C@@H]1NC(=O)[C@H](CCCNC(=N)N)NC(=O)[C@@H](CC(=O)O)NC(=O)[C@H](CO)NC(=O)[C@@H](CO)NC(=O)[C@@H](CCC(=O)O)NC(=O)[C@H](Cc2ccc(O)cc2)NC(=O)[C@H](CCCCCS)NC1=O [des4.2.0, SHA-Tyr-dGlu-dSer-Ser-dAsp-Arg-Val] (HELM PEPTIDE1{R.V.[O=C([C@H](CCCCCS)N[*:1])[*:2]].Y.[dE].[dS].S.[dD]}$PEPTIDE1,PEPTIDE1,1:R1-8:R2$$$V2.0) :: 1394913

Request: Query the reported HDAC3 activity raw data (signal) for HDAC3 (Homo sapiens, UniProt O15379); item: N=C(N)NCCC[C@@H]1NC(=O)[C@H](Cc2c[nH]c3ccccc23)NC(=O)[C@H](CC(=O)O)NC(=O)[C@@H](CO)NC(=O)[C@H](Cc2c[nH]c3ccccc23)NC(=O)[C@H](CCCCCS)NC(=O)[C@H](CCC(N)=O)NC1=O [des4.1.0, SHA-Trp-dSer-Asp-Trp-Arg-Gln] (HELM PEPTIDE1{D.W.R.Q.[O=C([C@H](CCCCCS)N[*:1])[*:2]].W.[dS]}$PEPTIDE1,PEPTIDE1,1:R1-7:R2$$$V2.0)
Result: 1129520

====

Biological target: HDAC6 (Homo sapiens)
Construct: purchased Reaction Biology Corporation (assay run by the CRO)
Sequence (Q9UBN7 1-1215): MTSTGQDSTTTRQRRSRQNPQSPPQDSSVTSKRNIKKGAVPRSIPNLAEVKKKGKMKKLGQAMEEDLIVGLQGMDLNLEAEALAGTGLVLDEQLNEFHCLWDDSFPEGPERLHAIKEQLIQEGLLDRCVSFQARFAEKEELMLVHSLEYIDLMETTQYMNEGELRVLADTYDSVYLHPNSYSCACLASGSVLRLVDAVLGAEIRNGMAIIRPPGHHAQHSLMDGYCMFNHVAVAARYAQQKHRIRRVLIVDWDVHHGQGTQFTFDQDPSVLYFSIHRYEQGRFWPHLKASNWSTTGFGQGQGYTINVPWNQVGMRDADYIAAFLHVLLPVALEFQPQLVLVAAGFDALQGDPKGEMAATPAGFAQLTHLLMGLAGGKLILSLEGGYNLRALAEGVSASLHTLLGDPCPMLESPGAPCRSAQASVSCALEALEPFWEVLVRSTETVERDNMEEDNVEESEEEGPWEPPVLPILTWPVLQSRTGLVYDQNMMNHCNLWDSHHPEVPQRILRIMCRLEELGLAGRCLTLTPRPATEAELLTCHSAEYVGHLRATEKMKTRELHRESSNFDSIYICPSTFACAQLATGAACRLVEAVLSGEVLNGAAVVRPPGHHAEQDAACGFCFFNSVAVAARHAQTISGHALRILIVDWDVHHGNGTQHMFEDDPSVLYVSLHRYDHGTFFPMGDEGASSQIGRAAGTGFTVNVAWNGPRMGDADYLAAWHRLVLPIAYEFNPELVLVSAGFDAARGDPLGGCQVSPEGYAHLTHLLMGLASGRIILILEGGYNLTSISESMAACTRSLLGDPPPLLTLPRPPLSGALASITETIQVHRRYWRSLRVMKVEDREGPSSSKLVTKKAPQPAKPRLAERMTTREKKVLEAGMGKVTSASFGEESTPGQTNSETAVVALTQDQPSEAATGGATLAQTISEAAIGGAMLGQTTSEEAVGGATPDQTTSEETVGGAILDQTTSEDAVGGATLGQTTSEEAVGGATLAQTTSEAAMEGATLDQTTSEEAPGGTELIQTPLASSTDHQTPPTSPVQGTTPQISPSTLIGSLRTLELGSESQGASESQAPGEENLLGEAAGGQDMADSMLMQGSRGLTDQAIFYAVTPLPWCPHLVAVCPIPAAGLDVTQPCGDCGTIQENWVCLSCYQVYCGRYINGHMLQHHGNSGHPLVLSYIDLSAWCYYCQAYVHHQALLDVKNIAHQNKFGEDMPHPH
Assay: HDAC6 inhibition, full IC50 measurement (Reaction Biology; fluorogenic p53 peptide RHKK(Ac)AMC)
Assay type: biochemical
Conditions: Conc. 3.70E-07 M, t1
Peptide text beside a SMILES is read from it.
metric: HDAC6 activity raw data (signal)
Form field (numeric): enter value without unit.

N=C(N)NCCC[C@H]1NC(=O)[C@@H]2CCCN2C(=O)[C@H](CO)NC(=O)[C@@H](Cc2c[nH]cn2)NC(=O)[C@H](CCCCCS)NC(=O)[C@H](CCCCN)NC(=O)[C@H](Cc2ccc(O)cc2)NC(=O)[C@H]2CCCN2C(=O)[C@@H](CCC(N)=O)NC1=O [des3.1.0, SHA-dHis-Ser-Pro-dArg-dGln-dPro-Tyr-Lys] (HELM PEPTIDE1{K.[O=C([C@H](CCCCCS)N[*:1])[*:2]].[dH].S.P.[dR].[dQ].[dP].Y}$PEPTIDE1,PEPTIDE1,1:R1-9:R2$$$V2.0) :: 143033

// below: HDAC6 activity raw data (signal) requested for another molecule
Request: Dear colleague, I am looking for the recorded HDAC6 activity raw data (signal) of the following molecule: C[C@H](O)[C@H]1NC(=O)[C@H](Cc2c[nH]c3ccccc23)NC(=O)[C@H](CCCCCS)NC(=O)[C@H](CCCCN)NC(=O)[C@@H](CC(=O)O)NC(=O)[C@@H](CCCCN)NC(=O)[C@@H](CO)NC(=O)[C@H](CC(N)=O)NC(=O)[C@H](CC(=O)O)NC1=O [des2.1.0, SHA-Trp-dThr-Asp-Asn-dSer-dLys-dAsp-Lys] (HELM PEPTIDE1{D.N.[dS].[dK].[dD].K.[O=C([C@H](CCCCCS)N[*:1])[*:2]].W.[dT]}$PEPTIDE1,PEPTIDE1,1:R1-9:R2$$$V2.0)
Result: 70613

Numbers sourced from paper PMC8185074.
